molecular target: TEAD3 Y223 mutated to phenylalanine (Homo sapiens, UniProt Q99594, Y230F); test: gel-based ABPP assay, TEAD3 Y223F mutant; format: biochemical
Sequence (Q99594 219-435 Y230F): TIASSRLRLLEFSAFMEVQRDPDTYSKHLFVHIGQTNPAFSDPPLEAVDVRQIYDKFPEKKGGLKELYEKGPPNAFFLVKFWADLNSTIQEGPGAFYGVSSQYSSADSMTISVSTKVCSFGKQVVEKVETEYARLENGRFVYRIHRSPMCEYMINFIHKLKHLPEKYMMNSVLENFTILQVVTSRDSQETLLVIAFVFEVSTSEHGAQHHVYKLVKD
pIC50: −log10 of the molar value.
quantity measured: pIC50

Problem: Look up pIC50: C=CC(=O)N1CCCN(CCCOCc2ccccc2)C1 [DC-TEAD3in03]
Solution: ~4.73

###

target: TEAD3-YBD recombinant protein (Homo sapiens); assay: gel-based ABPP in vitro palmitoylation assay, TEAD3; type: biochemical; conditions: click-based ABPP assay
quantity measured: inhibition of TEAD3 palmitoylation

>>> observed_measurement("C=CC(=O)N1CCCN(CCCOCc2ccccc2)C1")
"potent inhibition"
>>> observed_measurement("C=CC(=O)N1CCC(O)(CCCOCc2ccccc2)CC1")
"potent inhibition"
>>> observed_measurement("C=CC(=O)N1CCN(CCCOCc2ccccc2)CC1")
"potent inhibition"

###

target: GAL4-TEAD3 (Homo sapiens, UniProt Q99594); experiment: GAL4-Luc reporter assay, GAL4-TEAD3; assay type: cell-based
Sequence (Q99594 2-435): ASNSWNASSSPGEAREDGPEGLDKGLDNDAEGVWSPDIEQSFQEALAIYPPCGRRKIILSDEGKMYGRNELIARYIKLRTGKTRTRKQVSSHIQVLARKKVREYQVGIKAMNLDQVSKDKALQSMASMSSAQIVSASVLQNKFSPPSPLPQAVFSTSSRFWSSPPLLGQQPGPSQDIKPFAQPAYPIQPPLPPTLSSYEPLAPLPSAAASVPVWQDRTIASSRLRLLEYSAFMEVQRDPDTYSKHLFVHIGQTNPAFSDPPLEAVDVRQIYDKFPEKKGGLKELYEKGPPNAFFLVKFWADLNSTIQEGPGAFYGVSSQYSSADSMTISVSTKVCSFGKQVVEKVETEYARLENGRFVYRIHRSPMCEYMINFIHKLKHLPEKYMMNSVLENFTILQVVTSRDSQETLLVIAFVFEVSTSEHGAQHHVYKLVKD
Sequence (P46937 whole entry partner, the tested form may be a part): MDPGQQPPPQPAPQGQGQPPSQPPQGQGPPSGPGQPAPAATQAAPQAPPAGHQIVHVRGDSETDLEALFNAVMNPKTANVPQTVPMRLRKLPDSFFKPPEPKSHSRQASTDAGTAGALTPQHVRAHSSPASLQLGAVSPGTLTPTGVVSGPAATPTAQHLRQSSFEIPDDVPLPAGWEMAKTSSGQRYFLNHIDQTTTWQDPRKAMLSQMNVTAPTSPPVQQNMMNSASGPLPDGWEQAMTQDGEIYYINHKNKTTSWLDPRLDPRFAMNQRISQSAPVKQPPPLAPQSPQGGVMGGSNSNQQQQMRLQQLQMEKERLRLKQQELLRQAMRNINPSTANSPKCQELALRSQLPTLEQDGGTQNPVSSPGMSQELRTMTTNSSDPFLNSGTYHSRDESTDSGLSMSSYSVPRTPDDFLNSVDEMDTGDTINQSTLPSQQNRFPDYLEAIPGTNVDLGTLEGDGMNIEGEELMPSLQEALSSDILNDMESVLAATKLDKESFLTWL
quantity measured: IC50 (nM)
Answers are plain numbers, in nM.

Problem: Look up IC50: C=CC(=O)N1CCCN(CCCOCc2ccccc2)C1 [DC-TEAD3in03]
Solution: 1150

###

molecular target: TEAD3-YBD recombinant protein (Homo sapiens, UniProt Q99594); assay: gel-based ABPP in vitro palmitoylation assay, TEAD3
Sequence (Q99594 219-435): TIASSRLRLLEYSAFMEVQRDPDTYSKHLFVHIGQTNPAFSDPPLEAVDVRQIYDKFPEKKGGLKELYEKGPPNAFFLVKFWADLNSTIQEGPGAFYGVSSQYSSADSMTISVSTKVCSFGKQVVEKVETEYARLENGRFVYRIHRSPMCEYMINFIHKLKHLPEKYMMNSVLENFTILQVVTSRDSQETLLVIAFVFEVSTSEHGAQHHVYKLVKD
quantity measured: pIC50
Give bare numbers, as −log10 of the molar value.

Problem: Look up pIC50: `C=CC(=O)N1CCC(CCOc2ccccc2)CC1`
Solution: 6.24
